Target: human insulin receptor (HIR) (human, UniProt P06213)
Assay: competition
READOUT NAME: Kd (µM)
Give the quantity in µM, number only.

Worked examples follow.
INSERT INTO assay_data (binder, unit_descriptor, number) VALUES
  ('SLEEEWAQIQHELYGPAESESFYDWFERQL [S596]', 'µM', '4.5e-05'),
  ('ANFYDWFVAELG [S242]', 'µM', 20),
  ('S229 (not fully specified; listing feature) chain 1: SDGFYNAIELLSX chain 2: KHLCVLEELFWGASLFGYCSGKKX', 'µM', 0.0044);

Continue with the binder presented below.
[in] Return reported Kd; argument: SDGFYNAIELLS [S118]
[out] 24
